# Protocol description: Partition coefficient, log D of the compound at pH 7.4 by HPLC analysis
# Condition notes: octanol/water
The following compounds are listed with their measured logD values.
Assay readout: logD

INSERT INTO results (chem_smiles, assay_readout, readout_value) VALUES
  ('O=c1c2c([nH]c3cc(Cl)c(Cl)cc13)CCCC2', 'logD', 2.6),
  ('CC1(C)CCc2[nH]c3c(Cl)cccc3c(=O)c2C1', 'logD', 2.9),
  ('COc1cccc2[nH]c3c(c(=O)c12)CCC(C)(C)C3', 'logD', 1.7),
  ('COc1cccc2[nH]c3c(c(=O)c12)CC(C)(C)CC3', 'logD', 1.9),
  ('O=c1c2c([nH]c3ccc(-c4ccc(OC(F)(F)F)cc4)cc13)CCSC2', 'logD', 2.5),
  ('COc1cccc2c(=O)c3c([nH]c12)CC(C)(C)CC3', 'logD', 2.4),
  ('O=c1c2c([nH]c3cc(Br)ccc13)CCCC2', 'logD', 2.8),
  ('Cc1cccc2[nH]c3c(c(=O)c12)CCCC3', 'logD', 2.1),
  ('O=c1c2c([nH]c3ccc(-c4ccc(COc5ccccc5)cc4)cc13)CCSC2', 'logD', 2.8),
  ('O=c1c2c([nH]c3ccc(-c4cccc(Oc5ccc(F)cc5)c4)cc13)CCSC2', 'logD', 2.8),
  ('COc1ccc2c(=O)c3c([nH]c2c1)CCC3', 'logD', 1.5),
  ('COc1cc2[nH]c3c(c(=O)c2cc1OC)CCCC3', 'logD', 1.3),
  ('CC1(C)CCc2[nH]c3ccc(Cl)cc3c(=O)c2C1', 'logD', 2.6),
  ('COc1ccc2[nH]c3c(c(=O)c2c1)CCCC3', 'logD', 1.5),
  ('O=c1c2c([nH]c3ccc(-c4ccc(COc5ccc(OC(F)(F)F)cc5)cc4)cc13)CCSC2', 'logD', 3.5),
  ('O=c1c2c([nH]c3cc(C(F)(F)F)ccc13)CCCCC2', 'logD', 3),
  ('O=c1c2c([nH]c3ccc(Oc4ccc(F)cc4)cc13)CCCC2', 'logD', 2.8),
  ('CC1(C)CCc2c([nH]c3ccc(Cl)cc3c2=O)C1', 'logD', 2.7),
  ('O=c1c2c([nH]c3c(F)cccc13)CCCC2', 'logD', 1.5),
  ('COc1cc2[nH]c3c(c(=O)c2cc1Cl)CCCC3', 'logD', 2.2);
